# System: Diacylglycerol kinase alpha (Homo sapiens)
# Sequence (P23743 whole entry): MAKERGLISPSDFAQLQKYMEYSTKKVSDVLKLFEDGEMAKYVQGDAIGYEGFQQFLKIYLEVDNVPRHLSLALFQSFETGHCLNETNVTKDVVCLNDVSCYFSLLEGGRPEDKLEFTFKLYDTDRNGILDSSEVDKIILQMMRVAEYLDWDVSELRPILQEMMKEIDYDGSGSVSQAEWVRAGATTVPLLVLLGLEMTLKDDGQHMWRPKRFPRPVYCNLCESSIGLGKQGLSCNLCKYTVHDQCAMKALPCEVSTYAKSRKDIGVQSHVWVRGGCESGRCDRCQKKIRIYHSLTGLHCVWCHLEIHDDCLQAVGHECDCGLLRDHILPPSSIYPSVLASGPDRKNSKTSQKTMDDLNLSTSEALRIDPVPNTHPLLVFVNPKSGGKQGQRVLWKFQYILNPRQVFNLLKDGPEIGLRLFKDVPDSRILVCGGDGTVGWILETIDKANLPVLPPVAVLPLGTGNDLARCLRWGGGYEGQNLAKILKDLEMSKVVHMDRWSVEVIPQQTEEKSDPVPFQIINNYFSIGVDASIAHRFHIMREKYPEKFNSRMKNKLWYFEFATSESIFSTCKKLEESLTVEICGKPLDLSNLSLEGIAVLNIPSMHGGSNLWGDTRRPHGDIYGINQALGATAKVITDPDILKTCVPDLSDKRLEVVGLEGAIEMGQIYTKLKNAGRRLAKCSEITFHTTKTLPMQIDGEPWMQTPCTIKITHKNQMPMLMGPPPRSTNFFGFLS
# Experiment: Inhibition of His-tagged recombinant human DGKalpha using DLG as substrate preincubated with substrate and ATP for 1 mins followed by compound addition and measured after 90 mins by ADP-Glo kinase assay

| Structure as smiles | IC50 |
| --- | --- |
| F/C(=C\c1ccc(Oc2ccccc2F)c(C(F)(F)F)c1N1CCCC2(CCN(CC3CC3)CC2)C1)c1nccc(-c2cnsc2)n1 | ≤ 20 nM |
| NC[C@H]1CCCN1c1c(/C=C(\F)c2nccc(-c3ccnnc3)n2)ccc(Oc2ccccc2)c1Cl | ≤ 20 nM |
| CCN1CCC2(CC1)CN(c1c(/C=C(\F)c3nccc(-c4ccnnc4)n3)ccc(Oc3ccccc3)c1C(F)(F)F)CCO2 | ≤ 20 nM |
| COc1cc(F)ccc1Oc1ccc(/C=C(\F)c2nncc(N3CCC(F)(F)C3)n2)c(N2CCC[C@@H](CN)C2)c1Cl | ≤ 20 nM |
| CCN1CCC2(CCCN(c3c(/C=C(\F)c4nccc(N5CC(F)(F)C5)n4)ccc(Oc4ccccc4F)c3C(F)(F)F)C2)CC1 | ≤ 20 nM |
